# Lookup of reported pIC50 keyed by entry
# Test target: recombinant human liver glycogen phosphorylase (Homo sapiens)
# Construct: made in house; host or cells: Sf9 insect cells (crude homogenate, diluted, used as the enzyme solution)
# Assay protocol: Measuring liver glycogen phosphorylase activity (forward reaction system, NADPH absorbance at 340 nm)
# Format: biochemical
# Measurement context: enzyme inhibitory activity with respect to liver glycogen phosphorylase; class symbols
# Procedure: [Pharmacological Test] 1. Exemplary Test (1) Method for Measuring Liver Glycogen Phosphorylase Activity The measurement of glycogen phosphorylase activity was carried out by a method using the forward reaction system. The measurement of glycogen phosphorylase activity using the forward reaction system was carried out as follows. […] NADPH generated from NADP during the dehydrogenation by G6PDH was detected. […]
pIC50: −log10 of the molar value.

Examples with their reported pIC50 follow.
**Query** Given the compound O=C(NCc1cc(F)ccc1F)c1cc(NC(=O)c2cc(F)c(F)cc2Cl)[nH]n1 [Example 1-20] , write its reported pIC50.
**Result** > 7.00

**Query** Given the compound O=C(NCc1c(Cl)cccc1Cl)c1cc(NC(=O)c2cc(F)c(F)cc2Cl)[nH]n1 [Example 1-134] , write its reported pIC50.
**Result** > 7.00

**Query** Given the compound Cc1cccc(CNC(=O)c2cc(NC(=O)c3cc(F)c(F)cc3Cl)[nH]n2)c1 [Example 3-33] , write its reported pIC50.
**Result** > 7.00

Proceeding to the next compound to report its pIC50.
**Query** Given the compound O=C(O)CNC(=O)c1ccc(CNC(=O)c2cc(NC(=O)c3cc(F)c(F)cc3Cl)[nH]n2)cc1 [Example 5-6] , write its reported pIC50.
**Result** > 7.00

----------
# Test target: recombinant human liver glycogen phosphorylase (Homo sapiens, UniProt P06737)
# Construct: made in house; host or cells: Sf9 insect cells (crude homogenate, diluted, used as the enzyme solution)
# Sequence (P06737 whole entry): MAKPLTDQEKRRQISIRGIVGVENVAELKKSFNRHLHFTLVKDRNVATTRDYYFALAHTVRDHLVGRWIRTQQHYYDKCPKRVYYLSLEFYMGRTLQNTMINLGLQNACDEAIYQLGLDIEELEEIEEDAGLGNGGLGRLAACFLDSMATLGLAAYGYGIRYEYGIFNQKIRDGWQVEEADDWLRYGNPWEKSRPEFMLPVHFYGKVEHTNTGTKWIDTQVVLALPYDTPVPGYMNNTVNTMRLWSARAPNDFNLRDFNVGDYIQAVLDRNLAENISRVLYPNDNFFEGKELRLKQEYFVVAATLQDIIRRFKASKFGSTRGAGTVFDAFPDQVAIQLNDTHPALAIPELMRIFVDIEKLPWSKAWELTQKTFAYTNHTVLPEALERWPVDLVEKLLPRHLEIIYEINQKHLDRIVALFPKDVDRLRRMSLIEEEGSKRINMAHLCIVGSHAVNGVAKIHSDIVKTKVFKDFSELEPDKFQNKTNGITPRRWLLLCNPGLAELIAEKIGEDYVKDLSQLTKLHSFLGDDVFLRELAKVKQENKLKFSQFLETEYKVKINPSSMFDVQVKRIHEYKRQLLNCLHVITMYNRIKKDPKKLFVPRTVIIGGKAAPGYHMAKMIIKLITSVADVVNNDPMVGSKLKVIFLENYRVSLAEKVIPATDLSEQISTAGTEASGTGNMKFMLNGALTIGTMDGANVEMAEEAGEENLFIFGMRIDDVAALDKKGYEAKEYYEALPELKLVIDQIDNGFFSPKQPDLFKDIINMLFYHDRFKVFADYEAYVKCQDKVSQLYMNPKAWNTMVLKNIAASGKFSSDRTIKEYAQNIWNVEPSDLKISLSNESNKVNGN
# Assay protocol: Measuring liver glycogen phosphorylase activity (forward reaction system, NADPH absorbance at 340 nm)
# Type: biochemical
# Measurement context: compound concentration 1000 nmol (in parentheses); read-out: inhibition rate (%) at a certain concentration
Measurement kind: inhibition at 1 µM
Please report the result as a number followed by the unit.

Examples with their reported inhibition at 1 µM follow.
**Query** Specify the recorded inhibition at 1 µM for `O=C(NC(c1ccccc1)c1ccccc1)c1cc(NC(=O)c2cc(F)c(F)cc2Cl)[nH]n1` , system: recombinant human liver glycogen phosphorylase (Homo sapiens, UniProt P06737).
**Result** 9.2%

**Query** Specify the recorded inhibition at 1 µM for `O=C(N[C@H](CO)c1ccccc1)c1cc(NC(=O)c2cc(F)c(F)cc2Cl)[nH]n1` , system: recombinant human liver glycogen phosphorylase (Homo sapiens, UniProt P06737).
**Result** 26.1%

**Query** Specify the recorded inhibition at 1 µM for `CN(CCc1ccccc1)C(=O)c1cc(NC(=O)c2cc(F)c(F)cc2Cl)[nH]n1` , system: recombinant human liver glycogen phosphorylase (Homo sapiens, UniProt P06737).
**Result** 23.2%

Proceeding to the next molecule to report its inhibition at 1 µM.
**Query** Specify the recorded inhibition at 1 µM for `COC(=O)c1ccc(N(C)C(=O)c2cc(NC(=O)c3cc(F)c(F)cc3Cl)[nH]n2)cc1` , system: recombinant human liver glycogen phosphorylase (Homo sapiens, UniProt P06737).
**Result** 13.8%

----------
# Test target: recombinant human liver glycogen phosphorylase (Homo sapiens)
# Construct: made in house; host or cells: Sf9 insect cells (crude homogenate, diluted, used as the enzyme solution)
# Assay protocol: Measuring liver glycogen phosphorylase activity (forward reaction system, NADPH absorbance at 340 nm)
# Type: biochemical
# Measurement context: enzyme inhibitory activity with respect to liver glycogen phosphorylase; class symbols
# Protocol: [Pharmacological Test] 1. Exemplary Test (1) Method for Measuring Liver Glycogen Phosphorylase Activity The measurement of glycogen phosphorylase activity was carried out by a method using the forward reaction system. The measurement of glycogen phosphorylase activity using the forward reaction system was carried out as follows. […] NADPH generated from NADP during the dehydrogenation by G6PDH was detected. […]
pIC50: −log10 of the molar value.
# Lookup of reported pIC50 keyed by entry

**Query** Given the compound Cn1cccc1CNC(=O)c1cc(NC(=O)c2cc(F)c(F)cc2Cl)[nH]n1 [Example 1-58] , write its reported pIC50.
**Result** > 7.00

----------
# Test target: recombinant human liver glycogen phosphorylase (Homo sapiens)
# Construct: made in house; host or cells: Sf9 insect cells (crude homogenate, diluted, used as the enzyme solution)
# Assay protocol: Measuring liver glycogen phosphorylase activity (forward reaction system, NADPH absorbance at 340 nm)
# Assay type: biochemical
# Measurement context: enzyme inhibitory activity with respect to liver glycogen phosphorylase; class symbols
pIC50: −log10 of the molar value.
Measurement kind: pIC50

Examples with their reported pIC50 follow.
**Query** Given the molecule `O=C(NCc1ccc(-n2cccn2)nc1)c1cc(NC(=O)c2cc(F)c(F)cc2Cl)[nH]n1` , write its reported pIC50.
**Result** > 7.00

**Query** Given the molecule `O=C(NN1CCOCC1)c1cccc(CNC(=O)c2cc(NC(=O)c3cc(F)c(F)cc3Cl)[nH]n2)c1` , write its reported pIC50.
**Result** > 7.00

**Query** Given the molecule `O=C(NCc1ccc(F)cc1F)c1cc(NC(=O)c2cc(F)c(F)cc2Cl)[nH]n1` , write its reported pIC50.
**Result** > 7.00

**Query** Given the molecule CN(C)c1ccc(CNC(=O)c2cc(NC(=O)c3cc(F)c(F)cc3Cl)[nH]n2)cn1 [Example 5-27] , write its reported pIC50.
**Result** > 7.00

**Query** Given the molecule `O=C(NCc1c(F)cccc1F)c1cc(NC(=O)c2cc(F)c(F)cc2Cl)[nH]n1` , write its reported pIC50.
**Result** > 7.00

**Query** Given the molecule `O=C(Nc1cc(C(=O)N(Cc2ccccc2)c2ccccc2)n[nH]1)c1cc(F)c(F)cc1Cl` , write its reported pIC50.
**Result** > 7.00

Next:
**Query** Given the molecule `CCCCN(CC)C(=O)c1cc(NC(=O)c2cc(F)c(F)cc2Cl)[nH]n1` , write its reported pIC50.
**Result** > 7.00

**Query** Given the molecule `COC(=O)COc1ccccc1CNC(=O)c1cc(NC(=O)c2cc(F)c(F)cc2Cl)[nH]n1` , write its reported pIC50.
**Result** > 7.00

**Query** Given the molecule `COc1ccc(CNC(=O)c2cc(NC(=O)c3ccc(Cl)cc3Cl)[nH]n2)cn1` , write its reported pIC50.
**Result** > 7.00

**Query** Given the molecule `Cc1nc(-c2ccccc2)oc1CNC(=O)c1cc(NC(=O)c2cc(F)c(F)cc2Cl)[nH]n1` , write its reported pIC50.
**Result** > 7.00

**Query** Given the molecule `O=C(NCc1ccccc1)c1cc(NC(=O)c2ccc(F)cc2Cl)[nH]n1` , write its reported pIC50.
**Result** 6.52 to 7.00

**Query** Given the molecule `Cl.O=C(NCc1ccccn1)c1cc(NC(=O)c2cc(F)c(F)cc2Cl)[nH]n1` , write its reported pIC50.
**Result** > 7.00

**Query** Given the molecule `O=C(O)CCN(C(=O)c1cc(NC(=O)c2cc(F)c(F)cc2Cl)[nH]n1)c1ccccc1` , write its reported pIC50.
**Result** 6.52 to 7.00

**Query** Given the molecule `COc1ccccc1N(C)C(=O)c1cc(NC(=O)c2cc(F)c(F)cc2Cl)[nH]n1` , write its reported pIC50.
**Result** 6.52 to 7.00

**Query** Given the molecule `CC(C)(C)OC(=O)NCc1ccnc(CNC(=O)c2cc(NC(=O)c3cc(F)c(F)cc3Cl)[nH]n2)c1` , write its reported pIC50.
**Result** > 7.00

**Query** Given the molecule `CCCN(C(=O)c1cc(NC(=O)c2cc(F)c(F)cc2Cl)[nH]n1)C1CCCCC1` , write its reported pIC50.
**Result** > 7.00

**Query** Given the molecule `O=C(NCCN1CCOCC1)c1ccc(CNC(=O)c2cc(NC(=O)c3cc(F)c(F)cc3Cl)[nH]n2)cc1` , write its reported pIC50.
**Result** > 7.00

**Query** Given the molecule N#CC(NC(=O)c1cc(NC(=O)c2cc(F)c(F)cc2Cl)[nH]n1)c1ccccc1 (centres unmarked) , write its reported pIC50.
**Result** > 7.00

**Query** Given the molecule `COc1ccc(CNC(=O)c2cc(NC(=O)c3cc(F)c(F)cc3C)[nH]n2)cn1` , write its reported pIC50.
**Result** > 7.00

**Query** Given the molecule `Cc1cccc(CNC(=O)c2cc(NC(=O)c3cc(F)c(F)cc3Cl)[nH]n2)n1` , write its reported pIC50.
**Result** > 7.00

**Query** Given the molecule `O=C(NCc1ccc(Cl)cc1)c1cc(NC(=O)c2cc(F)c(F)cc2Cl)[nH]n1` , write its reported pIC50.
**Result** > 7.00

**Query** Given the molecule `CCCN(C(=O)c1cc(NC(=O)c2cc(F)c(F)cc2Cl)[nH]n1)C1CCN(C(=O)CC(=O)O)CC1` , write its reported pIC50.
**Result** > 7.00
